System: Streptomyces fradiae ATCC 31664
Assay: Antibiotic sensitivity, sensitivity discs on seeded agar plates; further: key: -: resistance (no zones of inhibition); +: sensitivity (zones of inhibition); trace of sensitivity
Assay type: cell-based
Settings: discs: chloramphenicol, cephaloridine, tetracycline, vancomycin 30 μg, erythromycin 15 μg, lincomycin 2 μg, polymyxin B 300 units, streptomycin 10 μg
readoutKind: Antibiotic sensitivity

// solved cases for Antibiotic sensitivity follow
compound	Antibiotic sensitivity
CN[C@H](CC(C)C)C(=O)N[C@H]1C(=O)N[C@@H](CC(N)=O)C(=O)N[C@H]2C(=O)N[C@H]3C(=O)N[C@H](C(=O)N[C@H](C(=O)O)c4cc(O)cc(O)c4-c4cc3ccc4O)[C@H](O)c3ccc(c(Cl)c3)Oc3cc2cc(c3O[C@@H]2O[C@H](CO)[C@@H](O)[C@H](O)[C@H]2O[C@H]2C[C@](C)(N)[C@H](O)[C@H](C)O2)Oc2ccc(cc2Cl)[C@H]1O	+
CN(C)C1C(=O)C(C(N)=O)=C(O)C2(O)C(=O)C3=C(O)c4c(O)cccc4C(C)(O)C3CC12 (stereo not drawn)	+
O=C(Cc1cccs1)N[C@@H]1C(=O)N2C(C(=O)[O-])=C(C[n+]3ccccc3)CS[C@H]12	+
[H]/N=C(/N)N[C@H]1[C@H](O)[C@@H](O)[C@H](O[C@@H]2O[C@@H](C)[C@](O)(C=O)[C@H]2O[C@@H]2O[C@@H](CO)[C@H](O)[C@@H](O)[C@@H]2NC)[C@@H](N/C(N)=N\[H])[C@@H]1O	+
O=C(N[C@H](CO)[C@H](O)c1ccc([N+](=O)[O-])cc1)C(Cl)Cl	+

Turning now to a further compound:
Any idea what Antibiotic sensitivity came out for CCC[C@@H]1C[C@@H](C(=O)N[C@@H]([C@H]2O[C@H](SC)[C@H](O)[C@@H](O)[C@H]2O)[C@@H](C)O)N(C)C1 on Streptomyces fradiae ATCC 31664? -
